Experiment Summary: chemical genetic growth profiling, strain panel (AID 1159580);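 note: tested at 20 µM; growth read once vehicle control cultures reached saturation at 30 °C; 1 = growth at the plate median or of vehicle wells; lower values mean less growth of the strain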
Condition Context: S. cerevisiae deletion strains, growth OD, locus YJR066W, strain TOR1, active compounds read low
Hit rate of the full screen: of about 5,500 compounds, about 2,000 (36%) were called active. Another 18% or so got no clear call; they are omitted. The list shows a part of the results.
hey, just use 1 (yes) if measured normalized growth is less than 0.9, otherwise 0 (no)

For orientation, consider the following solved cases.
O=c1c(O)c(-c2ccc(O)cc2O)oc2cc(O)cc(O)c12; 0 (no)
COc1cc(Br)cc(C=Nc2ccc(Sc3ccccc3)nc2Sc2ccccc2)c1O; 1 (yes)

Req: Bench note: check whether CCCCCC(=O)Cc1cc(O)cc(O)c1C(=O)Oc1cc(CC(=O)CCCCC)c(C(=O)O)c(OC)c1 shows normalized growth below 0.9
Resp: 0 (no)

Req: Bench note: check whether Oc1c(Cl)cc(Cl)cc1C=Nc1ccc(Sc2ccccc2)nc1Sc1ccccc1 shows normalized growth below 0.9
Resp: 1 (yes)
